- Target or system: KIF18A (Homo sapiens, UniProt Q8NI77)
- Sequence (Q8NI77 1-374): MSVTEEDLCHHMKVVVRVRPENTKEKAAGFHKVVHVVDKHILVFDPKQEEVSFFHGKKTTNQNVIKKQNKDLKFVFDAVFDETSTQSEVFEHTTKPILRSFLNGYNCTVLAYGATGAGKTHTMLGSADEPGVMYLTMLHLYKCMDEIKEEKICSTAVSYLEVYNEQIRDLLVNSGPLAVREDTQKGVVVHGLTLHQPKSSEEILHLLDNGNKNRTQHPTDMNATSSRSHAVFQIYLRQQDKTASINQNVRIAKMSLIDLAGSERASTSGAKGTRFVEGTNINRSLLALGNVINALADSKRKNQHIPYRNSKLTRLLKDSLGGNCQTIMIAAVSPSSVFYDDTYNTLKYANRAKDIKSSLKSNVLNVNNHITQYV
Readout: IC50 (µM)

Cpd smiles: O=[N+]([O-])c1cc(Cl)ccc1S(=O)(=O)c1ccccc1
Data value: 2.2

###

- Target or system: KIF19 (Homo sapiens)
- Sequence (Q2TAC6 1-998): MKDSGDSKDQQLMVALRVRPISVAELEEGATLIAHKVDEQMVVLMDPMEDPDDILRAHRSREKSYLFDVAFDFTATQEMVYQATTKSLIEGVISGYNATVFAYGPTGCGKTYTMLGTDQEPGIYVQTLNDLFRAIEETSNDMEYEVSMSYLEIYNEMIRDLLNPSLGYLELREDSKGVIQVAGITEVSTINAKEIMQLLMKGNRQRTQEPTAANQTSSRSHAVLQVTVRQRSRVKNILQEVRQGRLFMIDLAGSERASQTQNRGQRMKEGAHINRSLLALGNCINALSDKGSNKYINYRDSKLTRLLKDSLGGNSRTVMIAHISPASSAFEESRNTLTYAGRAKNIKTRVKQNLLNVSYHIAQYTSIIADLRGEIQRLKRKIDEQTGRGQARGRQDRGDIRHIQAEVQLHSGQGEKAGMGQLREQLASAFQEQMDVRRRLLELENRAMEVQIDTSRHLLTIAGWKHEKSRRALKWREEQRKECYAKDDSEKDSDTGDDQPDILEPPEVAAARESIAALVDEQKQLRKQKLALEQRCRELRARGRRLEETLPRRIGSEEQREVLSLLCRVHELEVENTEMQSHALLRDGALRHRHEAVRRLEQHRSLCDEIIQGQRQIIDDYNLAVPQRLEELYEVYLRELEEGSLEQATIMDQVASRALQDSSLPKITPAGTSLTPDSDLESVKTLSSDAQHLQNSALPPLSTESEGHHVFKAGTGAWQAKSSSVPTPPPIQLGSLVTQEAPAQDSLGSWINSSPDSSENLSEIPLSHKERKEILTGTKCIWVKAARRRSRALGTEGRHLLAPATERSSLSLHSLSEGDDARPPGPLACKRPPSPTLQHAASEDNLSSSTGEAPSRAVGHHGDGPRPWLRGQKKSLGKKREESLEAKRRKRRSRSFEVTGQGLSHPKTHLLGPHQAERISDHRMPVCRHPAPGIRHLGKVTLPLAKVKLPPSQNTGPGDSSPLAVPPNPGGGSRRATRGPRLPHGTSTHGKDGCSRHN
pIC50: −log10 of the molar value.
Readout: pIC50

Cpd smiles: CC(C)(C)NS(=O)(=O)c1cccc(C(=O)N2CC3(CCC4(CC4)CC3)c3cc(NS(C)(=O)=O)ccc32)c1
Readout: pIC50
Data value: 6.55

Values were extracted from paper PMC11697083.
